# targetSystem: T1, Scribble PDZ1 R762A/A743R (human, UniProt Q14160 719-829, A743R | R762A)
# T1 construct: Scribble, human, PDZ1, aa 719-829 in pETM-11, with R762A and A743R; also called R762A/A743R mutant; source: E. coli BL21 Gold (DE3), purified (Ni2+ Sepharose)
# T1 sequence (Q14160 719-829 A743R/R762A): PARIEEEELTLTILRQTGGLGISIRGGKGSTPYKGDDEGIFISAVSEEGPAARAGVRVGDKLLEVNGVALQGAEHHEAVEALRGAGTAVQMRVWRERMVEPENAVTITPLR
# methodDescription: ITC; iTC200, 25°C, 20 mM HEPES pH 7.4; protein 50-100 µM in the cell, 0.64-3 mM peptide in the syringe; single-site fit, stoichiometry fixed to 0.8-1.1; triplicate
# runParameters: both partners purified
pKd: −log10 of the molar value. Square brackets hold non-standard residues; d marks the D form. Ends that are not written are not given here. pS = N[C@@H](COP(=O)(O)O)C(=O)O
observable: pKd

binder: MKRLT[pS]TRL (C-terminal nine residues of RPS6KA2, human; also called pRPS6KA2; phospho-RPS6KA2; source: synthetic peptide, bought: GeneCust) [RPS6KA2 peptide MKRLTpSTRL (p-3 phosphorylated)]
observable: pKd
quantitativeResult: 4.82

binder: RPHTNETSL (C-terminal nine residues of MCC (colorectal mutant cancer protein), human; source: synthetic peptide, bought: GeneCust) [MCC peptide RPHTNETSL (unphosphorylated)]
observable: pKd
quantitativeResult: 5.24

binder: RPHTNET[pS]L (C-terminal nine residues of MCC (colorectal mutant cancer protein), human; also called pMCC; source: synthetic peptide, bought: GeneCust) [MCC peptide RPHTNETpSL (p-1 phosphorylated)]
observable: pKd
quantitativeResult: 4.85

binder: MKRLTSTRL (C-terminal nine residues of RPS6KA2, human; source: synthetic peptide, bought: GeneCust) [RPS6KA2 peptide MKRLTSTRL (unphosphorylated)]
observable: pKd
quantitativeResult: 4.22

The origin of these recorded values is paper PMC6100724.
